Provenance of the data: patent US20120172293A1

target-of-assay: human Y2 receptor (human) (UniProt P49146)
Sequence (P49146 whole entry): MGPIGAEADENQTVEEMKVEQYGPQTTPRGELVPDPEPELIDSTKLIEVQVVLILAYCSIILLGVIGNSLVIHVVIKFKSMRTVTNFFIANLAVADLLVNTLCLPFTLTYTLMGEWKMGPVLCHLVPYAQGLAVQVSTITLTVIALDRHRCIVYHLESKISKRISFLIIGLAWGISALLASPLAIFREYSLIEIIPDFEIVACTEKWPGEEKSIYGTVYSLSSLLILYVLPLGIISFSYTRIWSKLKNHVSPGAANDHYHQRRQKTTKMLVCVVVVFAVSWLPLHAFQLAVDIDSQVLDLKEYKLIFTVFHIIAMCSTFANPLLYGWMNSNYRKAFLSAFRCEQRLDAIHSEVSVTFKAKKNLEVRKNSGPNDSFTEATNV
test: cell-based or functional assay
Non-standard residues stand in square brackets, D forms with d. *: point of attachment. Arg(Me) = CNC(=N)NCCC[C@H](N)C(=O)O; Cha = N[C@@H](CC1CCCCC1)C(=O)O; Dab = NCC[C@H](N)C(=O)O; Aib = CC(C)(N)C(=O)O; Bz = O=C(c1ccccc1)*
readout-label: GBA EC50 Ratio (vs PYY(3-36)), [35S]GTPγS
Answers are plain numbers.

{"binder": "Bz-RH[Cha]INL[Arg(Me)]TRQR[Cha]-NH2 (SMILES CC[C@H](C)[C@H](NC(=O)[C@H](CC1CCCCC1)NC(=O)[C@H](Cc1c[nH]cn1)NC(=O)[C@H](CCCNC(=N)N)NC(=O)c1ccccc1)C(=O)N[C@@H](CC(N)=O)C(=O)N[C@@H](CC(C)C)C(=O)N[C@@H](CCCNC(=N)NC)C(=O)N[C@H](C(=O)N[C@@H](CCCNC(=N)N)C(=O)N[C@@H](CCC(N)=O)C(=O)N[C@@H](CCCNC(=N)N)C(=O)N[C@@H](CC1CCCCC1)C(N)=O)[C@@H](C)O) [Benzoyl-[Cha27,36, Ile28, Arg(Me)31]-PYY(25-36)]", "observed": 15}

Request: Any idea what its GBA EC50 Ratio (vs PYY(3-36)), [35S]GTPγS is? The binder is Ac-S[dP]RH[Cha][Cha]N[Dab][Aib]TRQR[Cha]-NH2 (SMILES CC(=O)N[C@@H](CO)C(=O)N1CCC[C@@H]1C(=O)N[C@@H](CCCNC(=N)N)C(=O)N[C@@H](Cc1c[nH]cn1)C(=O)N[C@@H](CC1CCCCC1)C(=O)N[C@@H](CC1CCCCC1)C(=O)N[C@@H](CC(N)=O)C(=O)N[C@@H](CCN)C(=O)NC(C)(C)C(=O)N[C@H](C(=O)N[C@@H](CCCNC(=N)N)C(=O)N[C@@H](CCC(N)=O)C(=O)N[C@@H](CCCNC(=N)N)C(=O)N[C@@H](CC1CCCCC1)C(N)=O)[C@@H](C)O) [Ac-[D-Pro24, Cha27,28,36, Dab30, Aib31]-PYY(23-36)]
Response: 1.6
